Biological target: MMP-9 (Homo sapiens, UniProt P14780)
Construct: purchased Sino Biological 10327-HNAH
Sequence (P14780 107-707 limits assumed): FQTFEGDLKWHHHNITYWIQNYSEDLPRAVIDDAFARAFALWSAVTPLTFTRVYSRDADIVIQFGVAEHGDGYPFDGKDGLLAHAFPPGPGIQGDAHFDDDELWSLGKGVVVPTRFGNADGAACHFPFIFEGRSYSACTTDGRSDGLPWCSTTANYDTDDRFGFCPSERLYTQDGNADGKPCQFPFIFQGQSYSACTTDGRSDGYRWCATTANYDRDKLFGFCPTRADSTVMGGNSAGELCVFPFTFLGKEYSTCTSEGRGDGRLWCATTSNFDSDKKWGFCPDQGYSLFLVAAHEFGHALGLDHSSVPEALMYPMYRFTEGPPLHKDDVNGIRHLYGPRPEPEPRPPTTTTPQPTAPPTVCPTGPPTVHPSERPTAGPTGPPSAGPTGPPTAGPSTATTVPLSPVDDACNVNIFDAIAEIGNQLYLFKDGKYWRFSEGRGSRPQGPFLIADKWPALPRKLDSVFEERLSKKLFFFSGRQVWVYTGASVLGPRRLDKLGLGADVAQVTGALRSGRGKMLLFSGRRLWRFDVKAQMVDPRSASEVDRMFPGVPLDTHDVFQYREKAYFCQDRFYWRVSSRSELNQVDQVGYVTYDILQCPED
Experiment: MMP-9 inhibition assay (fluorogenic peptide substrate)
Type: biochemical
Details: Figure 5d; fragment combination joined by linker; n.d: not detected; read-out: MMP9 IC50
Description: The inhibition by the small molecule compounds against MMP-2/MMP-9 was measured using an assay probing the enzyme proteolytic activity on the substrate DNP-Pro-Leu-Gly-Met-Trp-Ser-Arg (Enzo Life Sciences, USA). All assays were performed in the assay buffer containing 50 mM Tris, 100 mM NaCl. […] The rate of hydrolysis was monitored by quantifying the emission at 360 nm (ex: 280 nm). The emission was measured with intervals of the 30 s for 30 min with Synergy H1 Plate Reader (Agilent, USA). […]
Below is a list of entries, each paired with its recorded pIC50 value.
Reminder that pIC50 means the negative base-10 logarithm of the concentration expressed in mol/L.

Worked examples follow.
>>> meas_value("Cc1cc(=O)[nH]c(-n2nc(C)c(CCC(=O)NCCSCC(=O)NCc3c[nH]nn3)c2C)n1")
3.57
>>> meas_value("Cc1cc(=O)[nH]c(-n2nc(C)c(CCC(=O)NCCNC(=O)CC(=O)/C=C/CCCCNC(=O)c3cnc4c(c3)nc(O)n4C)c2C)n1")
4.23
>>> meas_value("Cc1cc(=O)[nH]c(-n2nc(C)c(CCC(=O)NCc3c[nH]nn3)c2C)n1")
3.51
>>> meas_value("Cn1c(O)nc2cc(C(=O)NCCNC(=O)CSCCNC(=O)Cn3cnc4c(oc5ccccc54)c3=O)cnc21")
3.55
>>> meas_value("O=C(CSCCNC(=O)Cn1cnc2c(oc3ccccc32)c1=O)NCc1c[nH]nn1")
3.90

Reported pIC50, compound Cc1cc(=O)[nH]c(-n2nc(C)c(CCC(=O)NCCNC(=O)c3cncc(O)c3)c2C)n1 : ____
3.64

Reported pIC50, compound Cc1cc(=O)[nH]c(-n2nc(C)c(CCC(=O)NCCOCCOCCNC(=O)CCC(=O)NCc3c[nH]nn3)c2C)n1 : ____
3.64

Reported pIC50, compound Cc1cc(=O)[nH]c(-n2nc(C)c(CCC(=O)NCCOCCOCCNC(=O)c3cncc(O)c3)c2C)n1 : ____
3.70

Cited source: paper PMC10023787
